Values were extracted from ChEMBL document CHEMBL1125951.

biological target: D(1A) dopamine receptor (Rattus norvegicus, UniProt P18901); test: In vitro binding affinity to Dopamine receptor D1 in rat striatal membranes using D1 antagonist [3H]SCH-23390
Sequence (P18901 whole entry): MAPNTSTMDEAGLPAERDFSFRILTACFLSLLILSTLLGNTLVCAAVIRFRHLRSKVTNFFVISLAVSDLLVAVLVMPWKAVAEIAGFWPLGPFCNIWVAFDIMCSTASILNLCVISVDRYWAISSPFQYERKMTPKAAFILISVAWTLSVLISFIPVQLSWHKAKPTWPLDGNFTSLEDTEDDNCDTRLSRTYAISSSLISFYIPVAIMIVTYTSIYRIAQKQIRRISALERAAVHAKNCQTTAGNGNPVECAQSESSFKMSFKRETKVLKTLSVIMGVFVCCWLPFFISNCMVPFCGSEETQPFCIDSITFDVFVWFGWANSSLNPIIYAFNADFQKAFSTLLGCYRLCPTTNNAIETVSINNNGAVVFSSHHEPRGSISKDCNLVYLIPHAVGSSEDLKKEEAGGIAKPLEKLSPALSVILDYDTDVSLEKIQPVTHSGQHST
value type: IC50

Consider the following illustrative entries.
CCCN1CCC=C2c3nc(N)sc3CC[C@@H]21 : > 15 µM
CCCN1CCC=C2c3nc(N)sc3CC[C@H]21 : > 15 µM
CN1CCC=C2c3nc(N)sc3CC[C@@H]21 : > 20 µM

In: Need IC50 of `CN1CCC=C2c3nc(N)sc3CC[C@H]21` , thanks.
Out: > 20 µM

###

molecular target: D(2) dopamine receptor (Rattus norvegicus, UniProt P61169); experiment: In vitro binding affinity to Dopamine receptor D2 in rat striatal membranes using D2 antagonist [3H]spiperone; assay type: cell membranes, Striatum, Membrane
Sequence (P61169 whole entry): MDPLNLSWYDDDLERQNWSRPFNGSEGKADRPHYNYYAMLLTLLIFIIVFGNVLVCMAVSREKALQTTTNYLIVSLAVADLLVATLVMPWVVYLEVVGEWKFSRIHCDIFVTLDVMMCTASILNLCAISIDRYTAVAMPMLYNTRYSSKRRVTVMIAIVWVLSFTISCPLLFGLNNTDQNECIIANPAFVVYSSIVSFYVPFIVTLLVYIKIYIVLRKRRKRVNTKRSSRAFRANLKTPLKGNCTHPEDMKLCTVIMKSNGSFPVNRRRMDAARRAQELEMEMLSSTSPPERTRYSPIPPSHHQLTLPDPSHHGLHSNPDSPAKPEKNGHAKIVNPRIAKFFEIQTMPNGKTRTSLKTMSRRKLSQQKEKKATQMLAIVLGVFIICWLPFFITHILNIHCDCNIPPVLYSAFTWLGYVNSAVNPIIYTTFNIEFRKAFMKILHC
value type: IC50 (nM)
Value expressed in nM; do not type the unit.

CN1CCC=C2c3nc(N)sc3CC[C@@H]21 : 768

Attention now shifts to the item below.
In: Need IC50 of `CN1CCC=C2c3nc(N)sc3CC[C@H]21` , thanks.
Out: 376
